- Test system: SK-MEL-28
- PROTOCOL SUMMARY: NCI tumour cell line growth inhibition, 48 h
Calls of active or inactive are those of the source. No stated cut-off is given here; in the data, active = GI50 up to about 1.1 µM and inactive = higher.
Listing: GI50 of selected compounds

Take a look at these entries with their results.
# COMPOUND, GI50
records = [
    ("CNC(=O)O/N=C1\\N(C)CN(c2ccccc2)C12CCN(CCCC(=O)c1ccc(F)cc1)CC2", "> 100 µM (inactive)"),
    ("CCOP(=O)(OCC)/C(=C\\n1c(=S)[nH]c2cc(C)ccc21)C(=O)OC", "> 100 µM (inactive)"),
    ("Cc1ccc(C2=CC(=O)/C(=C\\C(=O)c3ccc(Br)cc3)O2)c(C)c1", "17.2 µM (inactive)"),
]

[ask] Which GI50 value belongs to N#CC1=C(S)N(C2OC(CO)C(O)C(O)C2O)C(c2ccccc2)=CC1c1ccco1 (stereo unspecified) ?
[reply] 91.6 µM (inactive)
